- protocol.text: qHTS for Inhibitors of Inflammasome Signaling: IL-1-beta AlphaLISA Primary Screen; also: % is scaled to controls: 0 for no effect and ±100 for the full control effect
- measurement.conditions: THP-1 LPS/ATP IL-1B secretion, 16 h; at 57.5 µM
Hit rate of the full screen: of about 360,000 compounds, about 17,000 (4.7%) were called active. Another 5% or so got no clear call; they are omitted. Rule as the data show it: active = activity change below about -50%; inconclusive = mostly about -30% to -49%; inactive = weaker than that. Only a selection was taken, and actives are over-represented in it overall.
The categories you may choose from are True for active, False for inactive

Answered cases to consult:
CN(C)CCN(C(=O)CN1C(=O)c2ccccc2C1=O)c1nc2cc3c(cc2s1)OCCO3    False
COc1ccc2sc(N(CCCN(C)C)C(=O)c3ccc(S(=O)(=O)N(C)C4CCCCC4)cc3)nc2c1    True
Cc1noc(C)c1/C=N/Nc1ccc2ccccc2n1    True
Cc1cccc(NS(=O)(=O)c2ccc(C)c(C(=O)NCC(c3ccccc3)N(C)C)c2)c1 (configuration not stated)    False

Could you check what this test reported for Clc1ccc(Nc2ccc3ccccc3n2)cc1 ?
False

Could you check what this test reported for O=C1NC[C@H](CCCCN2C[C@H](Cc3ccc(O)cc3)N(CCc3ccccc3)C(=O)C2=O)N(CCc2ccccc2)C1=O ?
False

----------
- protocol.text: qHTS for Inhibitors of Inflammasome Signaling: IL-1-beta AlphaLISA Primary Screen
- measurement.conditions: THP-1 LPS/ATP IL-1B secretion, 16 h; at 57.5 µM
Out of some 360,000 compounds screened, about 17,000 (4.7%) were called active. Roughly 5% stayed inconclusive and do not appear here. Rule as the data show it: active = activity change below about -50%; inconclusive = mostly about -30% to -49%; inactive = weaker than that. The full list was thinned out, with actives kept by preference.
The categories you may choose from are Yes (active), No (inactive)

Answered cases to consult:
CN1CCC(N(C)C(=O)c2ccc(Cl)c(S(=O)(=O)Nc3ccc(Cl)cc3)c2)CC1    No
Cc1ccc(-n2c(SCC(=O)N3CCC(C(=O)O)CC3)nc3ccccc3c2=O)cc1C    No
CC(CO)NCC12CC3CC(CC(C3)C1)C2 (stereo not drawn)    No
CNC(=O)C[C@H]1C(=O)N(c2ccc(OC)cc2)C[C@@H]1Cc1ccccc1    No
CC(=O)N=c1ncn(CC(COC(C)=O)OC(C)=O)c2nc[nH]c12 (stereo not drawn)    No
O=c1cc(CN2CCCCCCC2)c2c(ccc3ccccc32)o1    No

Could you check what this test reported for COc1cc2[nH]c(O)c(C=O)c2cc1OC ?
No

Could you check what this test reported for COc1ccc(NC(=S)Nc2ccc(S(N)(=O)=O)cc2)c(C)c1 ?
No

Could you check what this test reported for COc1ccc(N2C(=O)CC(N3CCC(C(N)=O)CC3)C2=O)cc1 (stereo not drawn) ?
No

Could you check what this test reported for COc1ccc(N2C(=O)C3C(C2=O)C(C(=O)c2ccccc2)N2CCCC32)cc1 (stereo not drawn) ?
Yes

----------
- protocol.text: qHTS for Inhibitors of Inflammasome Signaling: IL-1-beta AlphaLISA Primary Screen
- measurement.conditions: THP-1 LPS/ATP IL-1B secretion, 16 h; at 57.5 µM, stronger effect = lower value
Among all 360,000 compounds or so, about 17,000 (4.7%) were called active. About 5% were inconclusive and are not listed. The sample holds actives, similar compounds and a random draw of the others, so the mix is not that of the screen.
Reported activity change values for a set of molecules
Give just the numeric value; % need not be written.

Check out these entries, answers already filled in.
O=C1/C(=C\c2ccc([N+](=O)[O-])cc2)CS(=O)(=O)C/C1=C/c1ccc([N+](=O)[O-])cc1    -99.9
O=C(Nc1cccc(NC(=O)N2CCN(c3ccccc3)CC2)c1)N1CCN(c2ccccc2)CC1    -55.8
CCOC(=O)C1=CC[C@@H](c2ccccc2)N(S(=O)(=O)c2ccc(C)cc2)[C@H]1c1ccc(CC)cc1    52.6

So for C=CCNc1cnn(-c2ccc(C)cc2)c(=O)c1Cl , the logged activity change turned out to be -16.2

So for CC(C)C1C(=O)N(Cc2cn(CCC3OCCO3)nn2)CCS(=O)(=O)N1Cc1ccc(-c2ccccc2C(F)(F)F)cc1 (stereo not drawn) , the logged activity change turned out to be -17.2

So for CCCN(CCC)c1nc2c(C)cccn2c(=O)c1/C=C1/SC(=S)N(Cc2ccco2)C1=O , the logged activity change turned out to be 8.74

So for COC(=O)C1C(=O)NCC1c1ccc(OC)cc1 (stereo not drawn) , the logged activity change turned out to be 5.62

So for COc1ccc(C(=O)C(OP(=O)(OC)OC)c2ccccc2OC)cc1 (stereo not drawn) , the logged activity change turned out to be 0

----------
- protocol.text: qHTS for Inhibitors of Inflammasome Signaling: IL-1-beta AlphaLISA Primary Screen
- measurement.conditions: THP-1 LPS/ATP IL-1B secretion, 16 h; at 57.5 µM, stronger effect = lower value
Out of some 360,000 compounds screened, about 17,000 (4.7%) were called active. About 5% were inconclusive and are not listed. The sample holds actives, similar compounds and a random draw of the others, so the mix is not that of the screen.
assay.readout: activity change (%)
Give just the numeric value; % need not be written.

Check out these entries, answers already filled in.
O=C(Cc1ccc(Br)cc1)N1CCN(c2ccccn2)CC1    8.64
CC1CCC(C(C)C)C(=O)/C1=C\c1ccc(NC(=O)CCC(=O)O)cc1 (stereo not drawn)    0
O=C(/C=C/c1cccc(C(F)(F)F)c1)N1CCN(c2ccccn2)CC1    -95.2
CC1CCN(C(=O)CSc2nnc(-c3ccco3)n2N)CC1    3.36
CC1=CC(=NNS(=O)(=O)c2ccc([N+](=O)[O-])cc2)CC(C)(C)C1    8.3

So for O=C(/C=C/Sc1ncn[nH]1)c1ccc(Cl)cc1 , the logged activity change turned out to be -118

So for O=C(Nc1ccc(S(=O)(=O)Nc2nccs2)cc1)c1cccc(S(=O)(=O)N2CCOCC2)c1 , the logged activity change turned out to be 0

So for CN(C)c1ccc(/C=C/C(=O)c2ccc(C(C)(C)C)cc2)cc1[N+](=O)[O-] , the logged activity change turned out to be -95.8

So for Cc1ccccc1N1CCN(Cc2nc(Cc3ccccc3F)no2)CC1 , the logged activity change turned out to be 15.1

So for COc1ccc(CCNS(=O)(=O)c2cccc([N+](=O)[O-])c2)cc1 , the logged activity change turned out to be -12.5

So for COc1ccc(C2OC(CCc3ccccc3)Cc3[nH]c(=S)[nH]c(=O)c32)cc1 (stereo not drawn) , the logged activity change turned out to be -10.2

So for C/C(=N\Nc1nncc2ccccc12)c1ccc(Cl)c([N+](=O)[O-])c1 , the logged activity change turned out to be -6.54

So for COc1ccc(Cn2nnc3c(=O)[nH]c(C4CCN(C(=O)c5ccccc5Cl)CC4)nc32)cc1 , the logged activity change turned out to be 0

So for COC(=O)C[C@@H]1C=C[C@@H](NC(=O)c2ccc3c(c2)OCO3)[C@@H](CO)O1 , the logged activity change turned out to be 7.5

So for O=C(NCc1cccnc1)c1cc(S(=O)(=O)N2CCOCC2)c(Cl)cc1Cl , the logged activity change turned out to be 16.2

So for CC(C)CCC(=O)Nc1cc(S(=O)(=O)N2CCOCC2)ccc1N1CCCC1 , the logged activity change turned out to be -21.6

----------
- protocol.text: qHTS for Inhibitors of Inflammasome Signaling: IL-1-beta AlphaLISA Primary Screen
- measurement.conditions: THP-1 LPS/ATP IL-1B secretion, 16 h; at 57.5 µM
- Description: Inflammasomes are a set of intracellular multi-protein complexes that enable autocatalytic activation of inflammatory caspases and drive the innate immune response to counter harmful agents. […] A qHTS assay, based on AlphaLISA technology, was developed to screen the Molecular Libraries Small Molecule Repository (MLSMR) to look for novel inflammasome inhibitors. The assay detects IL-1B using AlphaLISA anti-IL-1B acceptor and donor beads. […]
About 17,000 (4.7%) of roughly 360,000 compounds were called active. About 5% were inconclusive and are not listed. Cut-off read from the data, not from the text of the source: active = activity change below about -50%; inconclusive = mostly about -30% to -49%; inactive = weaker than that. The sample as a whole holds a higher share of actives than the screen did.
The categories you may choose from are active, inactive

Answered cases to consult:
CCOc1ccc(C(C)C)cc1S(=O)(=O)n1nc(C)cc1C    inactive
Brc1ccc(OCCn2ccnc2)cc1    inactive
Cc1cccc(-c2cnc(C(O)c3ccc4ccccc4c3)[nH]2)c1 (stereo not given)    inactive
FC(F)(F)Oc1ccccc1C(c1nnnn1C1CCCCC1)N1CCN(C/C=C/c2ccccc2)CC1 (stereo not given)    inactive
COc1ccc(OC)c(S(=O)(=O)n2c([N+](=O)[O-])cnc2C)c1    inactive
CC1=C/C(=N\OS(=O)(=O)c2ccccc2)C=CC1=O    active
Cc1cc(C(=O)O)ccc1[N+](=O)[O-]    inactive
COc1ccc(NC(=O)C2(C)Cc3c(-c4cccc(NC(C)=O)c4)ccnc3O2)cc1OC (stereo not given)    inactive
CCc1ccc(NC(=O)N[C@H](C(=O)O)C(C)CC)cc1 (stereo not given in full)    inactive
O=C(NCC(O)c1nc2ccccc2[nH]1)c1ccc(Br)cc1 (stereo not given)    inactive

Could you check what this test reported for CSCCC(NC(=O)COc1ccccc1)C(=O)OCc1ccc(Cl)cc1 (stereo not given) ?
inactive

Could you check what this test reported for COc1cc(NC(=O)CSc2ccc(-c3cccnc3)nn2)cc(OC)c1 ?
inactive

Could you check what this test reported for COc1ccc(C(=O)NC(=S)N2CCCCC2c2cccnc2)cc1OC (stereo not given) ?
inactive
